// provenance: ChEMBL document CHEMBL1145791

target: Prostaglandin D2 receptor (Homo sapiens, UniProt Q13258); assay: In vitro inhibition of [3H]- PGD-2 radioligand binding to prostaglandin D2 receptor on human platelet membrane
Sequence (Q13258 whole entry): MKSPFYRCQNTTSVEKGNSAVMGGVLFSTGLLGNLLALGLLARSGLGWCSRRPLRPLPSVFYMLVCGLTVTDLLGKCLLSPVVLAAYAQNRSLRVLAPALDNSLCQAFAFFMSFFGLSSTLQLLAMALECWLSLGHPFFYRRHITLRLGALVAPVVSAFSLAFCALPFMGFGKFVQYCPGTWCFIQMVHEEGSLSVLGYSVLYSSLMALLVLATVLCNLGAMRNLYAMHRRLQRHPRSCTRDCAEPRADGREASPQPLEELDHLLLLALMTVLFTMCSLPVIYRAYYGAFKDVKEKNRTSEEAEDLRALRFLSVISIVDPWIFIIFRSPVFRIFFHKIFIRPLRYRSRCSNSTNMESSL
TEST READOUT: IC50 (µM)

// worked examples, IC50 included
{"columns": ["SAMPLE SMILES", "UNIT NAME", "IC50"],
 "data": [
  ["CN(C)c1ccc2c(c1)oc1ccc(S(=O)(=O)N[C@@H]3[C@@H]4CC[C@@H](C4)[C@H]3C/C=C\\CCCC(=O)O)cc12", "µM", 0.036],
  ["O=C(O)CCC/C=C\\C[C@@H]1[C@H]2CC[C@H](C2)[C@H]1NS(=O)(=O)c1ccc(/C=C/c2ccccc2)s1", "µM", 0.09],
  ["O=C(O)CCC/C=C\\C[C@@H]1[C@H]2CC[C@H](C2)[C@H]1NS(=O)(=O)c1ccc(Nc2ccccc2)cc1", "µM", 0.33]
]}

a: O=C(O)CCC/C=C\C[C@@H]1[C@H]2CC[C@H](C2)[C@H]1NS(=O)(=O)Cc1ccc(-c2ccccc2)cc1
b: O=C(O)CCC/C=C\C[C@@H]1[C@H]2CC[C@H](C2)[C@H]1NS(=O)(=O)c1ccc(Oc2ccccc2)cc1
Prompt: Decide: a or b , by lowest recorded IC50. Select an item and report its label.
Response: b

---

target: Prostaglandin D2 receptor (Homo sapiens, UniProt Q13258); assay: In vitro inhibition of [3H]- PGD-2 radioligand binding to prostaglandin D2 receptor on human platelet membrane
TEST READOUT: IC50 (nM)

A: O=C(O)CCC/C=C\C[C@@H]1[C@H]2CC[C@H](C2)[C@H]1NS(=O)(=O)c1ccccc1Br
B: O=C(O)CCCCCC[C@@H]1[C@H]2CC[C@H](C2)[C@H]1NS(=O)(=O)c1ccc2oc3ccccc3c2c1
C: O=C(O)CCC/C=C\C[C@@H]1[C@H]2CC[C@H](C2)[C@H]1NS(=O)(=O)c1ccc2sc3ccccc3c2c1
Prompt: Reorder the list: decreasing IC50. Rank the items, then write their labels in that order.
Response: A, B, C
